molecular target: Aromatase (Homo sapiens) (UniProt P11511); assay: qHTS assay to identify aromatase inhibitors (AID 743083); details: MCF-7 aro ERE, testosterone-driven ERE luciferase, 24 h; series mostly up to 70.3 µM; note: nearly all actives have a fitted effect of over 55% in size
Sequence (P11511 whole entry, looked up): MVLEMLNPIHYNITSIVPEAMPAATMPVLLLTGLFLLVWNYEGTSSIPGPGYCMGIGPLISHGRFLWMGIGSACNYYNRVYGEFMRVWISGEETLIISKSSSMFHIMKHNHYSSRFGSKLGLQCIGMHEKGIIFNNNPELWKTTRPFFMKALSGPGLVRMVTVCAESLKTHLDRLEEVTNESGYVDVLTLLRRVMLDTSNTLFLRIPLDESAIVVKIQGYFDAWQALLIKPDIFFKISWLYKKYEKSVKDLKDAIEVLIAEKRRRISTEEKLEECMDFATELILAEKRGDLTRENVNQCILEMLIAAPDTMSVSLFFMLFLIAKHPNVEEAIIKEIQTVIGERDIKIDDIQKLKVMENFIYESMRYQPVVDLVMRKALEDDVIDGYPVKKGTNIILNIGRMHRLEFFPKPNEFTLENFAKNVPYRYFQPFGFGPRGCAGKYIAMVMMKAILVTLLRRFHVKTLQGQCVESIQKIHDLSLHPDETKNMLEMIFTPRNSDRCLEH
Records with an inconclusive call do not appear. Activity calls are given as the source filed them. Calls come from the whole dose curve; as a rule, active = well fitted inhibition curve with a large enough effect in the repeat runs; inconclusive = weak or mixed curves; inactive = no such curve, though single readings can be large or run the other way.
Lab note: assign the record to one of active, inactive

C=CCc1ccc(O)c(OC)c1: inactive
OC[C@H]1O[C@H](O[C@]2(CCl)O[C@H](CCl)[C@@H](O)[C@@H]2O)[C@H](O)[C@@H](O)[C@H]1Cl: inactive
Cc1ncc([N+](=O)[O-])n1C: inactive
Nc1ccc(S(N)(=O)=O)cc1: inactive
CC(=O)CCC(=O)O: inactive
O=C(Nc1ncc([N+](=O)[O-])s1)c1cccs1: inactive
Oc1ccccc1: inactive
CCOc1ccc(NC(C)=O)cc1: inactive

Ask: What is the recorded call for this compound in the test? `Cc1cn([C@H]2C=C[C@@H](CO)O2)c(=O)[nH]c1=O`
Result: inactive

Ask: What is the recorded call for this compound in the test? CN(C)CCOC(C)(c1ccccc1)c1ccccn1 (stereo not given)
Result: inactive

Ask: What is the recorded call for this compound in the test? `Nc1ccc(O)c([N+](=O)[O-])c1`
Result: inactive

Ask: What is the recorded call for this compound in the test? O=C(O)CC(O)C(=O)O (stereo not given)
Result: inactive

Ask: What is the recorded call for this compound in the test? `O=C1O[C@H]([C@@H](O)CO)C(O)=C1O`
Result: inactive

Ask: What is the recorded call for this compound in the test? `COc1cccc(O)c1O`
Result: active

Ask: What is the recorded call for this compound in the test? `Cc1cccc(C)c1`
Result: inactive

---

test: qHTS assay to identify small molecule agonists of the estrogen related receptor signaling pathway with the pleiotropic PPARgamma coactivator (PGC) from Tox21 10K library (AID 1224842); conditions: PGC/ERR reporter cell line, luciferase ONE-Glo, 18 h; series mostly up to 92.4 µM; note: nearly all actives have a fitted effect of over 15% in size
Results filed as inconclusive are left out. The source made the active and inactive calls. Calls come from the whole dose curve; as a rule, active = well fitted activation curve with a large enough effect in the repeat runs; inconclusive = weak or mixed curves, or effect the other way; inactive = no such curve, though single readings can be large or run the other way.
Lab note: assign the record to one of 1 = active, -1 = inactive

Cc1ncc([N+](=O)[O-])n1CCO: -1
C1=CC2C3C=CC(C3)C2C1 (configuration not stated): -1
CCCCNC(=O)NS(=O)(=O)c1ccc(C)cc1: -1
Cn1c(=O)c2c(ncn2C)n(C)c1=O: -1
O=C(Nc1ncc([N+](=O)[O-])s1)c1cccs1: 1
CC(C)C(=O)Nc1ccc([N+](=O)[O-])c(C(F)(F)F)c1: -1

--- query ---
Ask: What is the recorded call for this compound in the test? `NS(=O)(=O)c1cc2c(cc1Cl)NCNS2(=O)=O`
Result: -1

---

test: Caspase-3/7 induction in HepG2 cells by small molecules, qHTS cell viability counter screen (AID 1346981); settings: CellTiter-Fluor fluorescence, 17 h; series mostly up to 92.4 µM; note: nearly all actives have a fitted effect of over 30% in size
Results filed as inconclusive are left out. Active and inactive are the calls of the source. The call rests on the fitted dose curve; in most records, active means well fitted cell-killing curve with a large enough effect in the repeat runs; inconclusive means weak or mixed curves, or effect the other way; inactive means flat fitted curve, though single readings scatter.
Lab note: assign the record to one of y for active, n for inactive

C1CCC(C(CC2CCCCN2)C2CCCCC2)CC1 (stereo not drawn): y
CC(C)c1c(C(=O)Nc2ccccc2)c(-c2ccccc2)c(-c2ccc(F)cc2)n1CC[C@@H](O)C[C@@H](O)CC(=O)O: n
CC/C(=C(\c1ccccc1)c1ccc(OCCN(C)C)cc1)c1ccccc1: y
CN(C)CCOC(C)(c1ccccc1)c1ccccn1 (stereo not drawn): n
CCCCOC(=O)c1ccc(O)cc1: n
NC1CCCCC1: n
CC(O)(P(=O)(O)O)P(=O)(O)O: n
C=C(C)C(=O)OCC(C)O (stereo not drawn): n
O=C1c2c(O)cccc2Cc2cccc(O)c21: n
F[B-](F)(F)F: n

Ask: What is the recorded call for this compound in the test? `COc1ccc2cc(S(=O)(=O)N[C@H](CC(=O)N[C@H](Cc3ccc(CN4[C@H](C)CCC[C@@H]4C)cc3)C(=O)N(C)C(C)C)c3ccc4c(c3)OCO4)ccc2c1`
Result: y

Ask: What is the recorded call for this compound in the test? `C[C@](N)(Cc1ccc(O)c(O)c1)C(=O)O`
Result: n

Ask: What is the recorded call for this compound in the test? `O=C(O)c1ccccc1`
Result: n

Ask: What is the recorded call for this compound in the test? `CN[C@H]1CC[C@@H](c2ccc(Cl)c(Cl)c2)c2ccccc21`
Result: y

Ask: What is the recorded call for this compound in the test? C1=CC2C3C=CC(C3)C2C1 (stereo not drawn)
Result: n
